molecular target: BTK (Homo sapiens (Human))
Sequence (Q06187 whole entry): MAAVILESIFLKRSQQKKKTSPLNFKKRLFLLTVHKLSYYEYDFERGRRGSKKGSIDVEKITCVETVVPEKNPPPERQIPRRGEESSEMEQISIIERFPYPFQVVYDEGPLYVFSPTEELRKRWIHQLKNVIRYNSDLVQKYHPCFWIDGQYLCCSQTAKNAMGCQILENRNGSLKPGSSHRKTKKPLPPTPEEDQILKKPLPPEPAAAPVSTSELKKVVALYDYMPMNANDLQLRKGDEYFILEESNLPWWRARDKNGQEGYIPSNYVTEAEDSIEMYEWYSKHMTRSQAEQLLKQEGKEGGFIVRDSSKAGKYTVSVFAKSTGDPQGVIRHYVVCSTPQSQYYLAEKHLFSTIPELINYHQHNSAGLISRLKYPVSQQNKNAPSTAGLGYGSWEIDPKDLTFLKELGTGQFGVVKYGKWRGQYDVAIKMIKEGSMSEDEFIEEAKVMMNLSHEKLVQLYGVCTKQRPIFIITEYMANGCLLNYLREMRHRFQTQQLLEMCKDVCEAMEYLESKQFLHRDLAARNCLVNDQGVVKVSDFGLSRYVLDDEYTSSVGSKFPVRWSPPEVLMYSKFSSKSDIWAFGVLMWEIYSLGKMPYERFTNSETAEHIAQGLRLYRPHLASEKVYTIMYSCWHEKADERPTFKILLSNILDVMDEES
pIC50: −log10 of the molar value. Where a name gives a salt, the structure may show the parent alone.
Reported pIC50 by item:

>>> df
                                   molecule              assayed_target  experimental_value
0  Cc1cc(-c2ncnn3cc(N4CCO[C@H](C)C4)cc23)ccc1CNC(=O)c1noc(C(C)(C)C)n1 (single isomer, unassigned)  BTK (Homo sapiens (Human))              ≥ 9.00

If you can, please state the reported pIC50 value of "CC(C)(C)c1cc(C(=O)NCc2cc(F)c(-c3ncnn4cccc34)cc2Cl)no1" .
< 8.00

If you can, please state the reported pIC50 value of Cc1cc(-c2ncnn3cc(N4CCN(C)CC4)cc23)ccc1CNC(=O)c1noc(C(C)(C)C)n1 [Example 4, trifluoroacetate] .
≥ 9.00

If you can, please state the reported pIC50 value of "CC(C)(C)c1nc(C(=O)NCc2ccc(-c3ncnn4cc(N5CCOCC5)cc34)cc2CC(F)F)no1" .
≥ 9.00

If you can, please state the reported pIC50 value of "Cc1cc(-c2ncnn3cccc23)ccc1CNC(=O)c1nnc(C(C)(C)C)o1" .
< 8.00

If you can, please state the reported pIC50 value of "Cn1cc(-c2cc3c(-c4ccc(CNC(=O)c5nc(C(C)(C)C)no5)c(C(F)F)c4)ncnn3c2)cn1" .
≥ 9.00

If you can, please state the reported pIC50 value of CC(C)(C)c1noc(C(=O)NCc2ccc(-c3ncnn4cc(N5CCOCC5)cc34)cc2CC(F)F)n1 [Example 65, hydrochloride] .
≥ 9.00

====

pIC50: −log10 of the molar value.
Assay system BTK (Homo sapiens (Human)); read-out recorded as pIC50.

If you can, please state the reported pIC50 value of "CC(C)(C)c1noc(C(=O)NCc2ccc(-c3ncnn4cccc34)c(F)c2C2CC2)n1" .
8.00 to 9.00

If you can, please state the reported pIC50 value of "Cc1cc2nccc(-c3ccc(CNC(=O)c4noc(C(C)(C)C)n4)c(C)c3)n2n1" .
< 8.00

If you can, please state the reported pIC50 value of "Cc1cc(-c2ncnn3cc(C(=O)N4CCOCC4)cc23)ccc1CNC(=O)c1noc(C(C)(C)C)n1" .
< 8.00

====

Assay system BTK (Homo sapiens (Human), UniProt Q06187); read-out recorded as IC50.
Counter-ions that a name gives are not always drawn.

Known results for compounds:
                                   compound                            assayed_target  measurement_name  experimental_value
0  COc1c(CNC(=O)c2cn(C(C)(C)C)nn2)ccc(-c2ncnn3cc(-c4cnn(C)c4)cc23)c1F [Example 200]  BTK (Homo sapiens (Human), UniProt Q06187)              IC50          1 to 10 nM
1  Cc1cc(-c2ncnn3cc(-c4cnn(C(F)F)c4)cc23)ccc1CNC(=O)c1noc(C(C)(C)C)n1 [Example 107]  BTK (Homo sapiens (Human), UniProt Q06187)              IC50              ≤ 1 nM
2  CC(C)(C)c1nnc(C(=O)NCc2ccc(-c3ncnn4cc(N5CCOCC5)cc34)c(F)c2C(F)F)o1 [Example 199]  BTK (Homo sapiens (Human), UniProt Q06187)              IC50          1 to 10 nM
3  CC(C)(C)n1cc(C(=O)NCc2ccc(-c3ncnn4cc(N5CCOCC5)cc34)cc2C2CC2)nn1 [Example 205]  BTK (Homo sapiens (Human), UniProt Q06187)              IC50          1 to 10 nM
4  Cc1cc(-c2ncnn3cc(Br)cc23)ccc1CNC(=O)c1noc(C(C)(C)C)n1 [Example 51]  BTK (Homo sapiens (Human), UniProt Q06187)              IC50          1 to 10 nM
5  Cc1cc(-c2ncnn3cc(N4C[C@@H]5C[C@H]4CN5C)cc23)ccc1CNC(=O)c1noc(C(C)(C)C)n1 [Example 93]  BTK (Homo sapiens (Human), UniProt Q06187)              IC50             > 10 nM

If you can, please state the reported IC50 value of Cc1cc(-c2ncnn3cc(CC4CCOCC4)cc23)ccc1CNC(=O)c1noc(C(C)(C)C)n1 [Example 94] .
> 10 nM

If you can, please state the reported IC50 value of Cc1cc(-c2ncnn3cc(N4CCN(C)C(=O)C4)cc23)ccc1CNC(=O)c1noc(C(C)(C)C)n1 [Example 177] .
≤ 1 nM

If you can, please state the reported IC50 value of Cc1c(CNC(=O)c2noc(C(C)(C)C)n2)cc(F)c(-c2ncnn3cccc23)c1F [Example 63, hydrochloride] .
1 to 10 nM
